Target: 11-beta-hydroxysteroid dehydrogenase 1 (Mus musculus, UniProt P50172)
Sequence (P50172 whole entry): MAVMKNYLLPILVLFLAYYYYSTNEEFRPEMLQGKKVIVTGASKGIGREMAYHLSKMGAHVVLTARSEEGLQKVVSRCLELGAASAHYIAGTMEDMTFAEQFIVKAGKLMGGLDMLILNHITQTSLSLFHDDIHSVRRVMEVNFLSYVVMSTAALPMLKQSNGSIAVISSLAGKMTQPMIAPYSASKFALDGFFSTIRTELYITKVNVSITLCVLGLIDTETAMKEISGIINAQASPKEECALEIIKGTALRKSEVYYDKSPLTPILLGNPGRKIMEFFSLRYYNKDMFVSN
Test: Inhibition of mouse recombinant 11beta-HSD1 assessed as conversion of [3H]cortisone to [3H]cortisol by SPA assay

# Compound, Scale Unit, Result Modifier, IC50
data = [
    ("CCc1ccc(S(=O)(=O)N2CCN(c3ncccc3C(F)(F)F)CC2)cc1", "µM", "=", 0.053),
    ("CCC1CN(c2ncccc2C(F)(F)F)CCN1S(=O)(=O)c1ccc(C(C)(C)C)cc1 (stereo not given)", "µM", "=", 0.006),
    ("CC(C)(C)c1ccc(S(=O)(=O)N2CCN(c3ccccc3F)CC2)cc1", "µM", "=", 0.098),
    ("O=S(=O)(c1cccc(C(F)(F)F)c1)N1CCN(c2ncccc2C(F)(F)F)CC1", "µM", "=", 0.053),
    ("N#Cc1ccc(S(=O)(=O)N2CCN(c3ncccc3C(F)(F)F)CC2)cc1", "µM", "=", 0.546),
    ("CC1CN(c2ncccc2C(F)(F)F)CCN1S(=O)(=O)c1ccc(C(C)(C)C)cc1 (stereo not given)", "µM", "=", 0.004),
    ("O=C(c1ccccc1)N1CCN(c2ncccc2C(F)(F)F)CC1", "µM", ">", 1),
    ("Cc1ccc(S(=O)(=O)N2CCN(c3ncccc3Cl)CC2)cc1", "µM", "=", 0.146),
    ("O=S(=O)(c1ccccc1)N1CCN(c2ncccc2C(F)(F)F)CC1", "µM", "=", 0.122),
    ("FC(F)(F)c1cccnc1N1CCN(Cc2ccccc2)CC1", "µM", ">", 1),
]

====

pIC50: −log10 of the molar value.
In what follows, each item is paired with its pIC50 for 11-beta-hydroxysteroid dehydrogenase 1 (Homo sapiens).
Quantity Kind: pIC50

# Chemical Structure, Result Number
measured = [
    ("CC(C)(C)c1ccc(S(=O)(=O)N2CCN(c3ccccc3F)CC2)cc1", 6.97),
    ("O=S(=O)(c1cccc(C(F)(F)F)c1)N1CCN(c2ncccc2C(F)(F)F)CC1", 7.19),
    ("Cc1ccc(S(=O)(=O)N2CCN(c3ncccc3Cl)CC2)cc1", 6.93),
    ("Cc1ccc(S(=O)(=O)N2CCN(c3ncccc3C)CC2)cc1", 6.82),
]
